The reader will find reported CCL2 production (fold over LPS alone) values listed item by item below.
# test.system: human LILRB2 expressed on cells (human, UniProt Q8N423 22-597)
# Sequence (Q8N423 other isoform, or with tags, fused parts or gaps limits assumed): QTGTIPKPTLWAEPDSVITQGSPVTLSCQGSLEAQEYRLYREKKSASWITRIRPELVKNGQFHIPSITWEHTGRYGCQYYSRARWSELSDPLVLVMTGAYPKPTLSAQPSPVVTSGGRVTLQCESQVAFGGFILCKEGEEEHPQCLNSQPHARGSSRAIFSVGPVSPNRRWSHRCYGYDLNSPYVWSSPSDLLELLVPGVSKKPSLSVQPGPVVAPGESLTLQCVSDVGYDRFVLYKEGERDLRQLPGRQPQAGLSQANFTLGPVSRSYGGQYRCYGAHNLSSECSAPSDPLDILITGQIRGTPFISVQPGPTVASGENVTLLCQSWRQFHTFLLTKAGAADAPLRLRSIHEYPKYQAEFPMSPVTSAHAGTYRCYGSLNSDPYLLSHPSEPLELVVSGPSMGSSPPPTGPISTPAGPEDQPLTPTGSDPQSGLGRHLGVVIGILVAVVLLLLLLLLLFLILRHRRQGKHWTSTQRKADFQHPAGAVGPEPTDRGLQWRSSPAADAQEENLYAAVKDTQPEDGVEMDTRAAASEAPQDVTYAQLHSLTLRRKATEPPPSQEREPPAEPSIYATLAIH
# protocol.description: cell-based or functional assay
observed.property: CCL2 production (fold over LPS alone)

INSERT INTO results (binder, recorded_result) VALUES
  ('J-04 (antibody, human IgG4 S228P, kappa, V domains shown, Human IgG4 chimera of murine origin) VH: QVQLQQSGAELVRPGASVTLSCKASGYTFADYEIHWVKQTPVHGLEWIGAIDPETGGTAYNQKFKGKAILTADKSSSTAYMELRSLTSEDSAVYYCTRYYDYDDAMDYWGQGTSVTVSS VL: QIVLTQSPAIMSASPGEKVTMTCSASSSVSFMHWYQQKSGTSPKRWIYGTSKLASGVPARFSGSGSGTSYSLTISSMEAEDAATYYCQQWNGNPFTFGSGTKLETKR', 1),
  ('J-03 (antibody, human IgG4 S228P, kappa, V domains shown, Human IgG4 chimera of murine origin) VH: QVQLQQSGAELVRPGASVTLSCKASGYKFTDYEMHWVKQTPVHGLEWIGAIDPETNGTAYNKKFKGKAILTADKSSSTAYMELRSLTSEDSAVYYCTRGDYDFSAWFAYWGQGTLVTVSA VL: DIVLTQSPASLAVSLGQRATISCRASESVDNYDISFMHWYQQKPGQPPKLLIYRASNLESGIPARFSGSGSRTDFTLTINPVETDDVATYYCQQSNKDPRTFGGGTKLEIKR', 0.95),
  ('J-11 (antibody, human IgG4 S228P, kappa, V domains shown, Human IgG4 chimera of murine origin; also called J-11.h) VH: QVQLQQSGAELMKPGASVKLSCKATGYILTGYWIEWVKQRPGHGLEWIGEILPGSGSTNYNENFKGKATFTADTSSNTAYMQLSSLTTEDSAIYYCARAVLGYFDYWGQGTTLTVSS VL: DIVMTQSHKFMSTSVGDRVSITCKASQDVSTAVAWYQQKPGQSPKLLIYWASTRHTGVPDRFTGSGSGTDYTLTISSVQAEDLALYYCHQHYSTYTFGGGTKLEIKR', 0.96),
  ('J-19 (antibody, human IgG4 S228P, kappa, V domains shown, Human IgG4 chimera from a rat immunization; also called J-19.h) VH: QVTLKESGPGILQPSHTLSLTCSFSGFSLNTYAMGVSWIRQPSGKGLEWLASIWWNGNKYNNPSLKSRLTVSKDTSNNQAFLKVTSVDTADTATYYCAHSRIIRFTDYVMDAWGQGASVTVSS VL: DIQMTQSPASLSTFLGEPVTIECRASEDIYNDLAWYQQKPGKSPQLLIYNANSLHTGVPSRFSGSGSGTQYSLKINSLQSEDVASYFCQQYYDYPLTFGSGTKLEIKR', 1.69);
